Cited source: patent US12410152B2

# Test system: UBE2M mutant KBM7 cells
# EXPERIMENT SUMMARY: cells
# Type: cell-based
# Experimental: KBM7 cells with the specified genetic backgrounds were grown in IMDM supplemented with 10% FBS and 1% penicillin/streptomycin (pen/strep). AsPC1, HCT116, NCI-H446 and 293T cells were grown in DMEM 10% FBS and 1% pen/strep. MV4; 11, Jurkat and Be (2) C cells were grown in RPMI 10% FBS 1% pen/strep. KBM7, AsPC1 and HCT116 cells expressing Cas9 were generated using the plasmid Lenti_Cas9_Blasti (Addgene #52962). […]
PROPERTY LABEL: CC50

> print(dat)
                                   compound  measured.value
1  Cc1ccc(C(=O)N2CSCC2C(=O)N=c2[nH]cc(C)s2)o1 (stereo not drawn)         7.04 µM
2  O=C(CSc1nnc2c(n1)[nH]c1ccccc12)Nc1ccc(Cl)cn1         4.15 µM

## Input Look up CC50 of O=C(CSc1nc2ccccc2[nH]1)Nc1ccc(Cl)cn1 and report it.
## Output 10.7 µM

====

# Tested on: KBM7 CUL4Bmut cells
# EXPERIMENT SUMMARY: cells
# Format: cell-based
PROPERTY LABEL: CC50 (µM)
One number for each entry, in µM.

For orientation, consider the following solved cases.
> print(dat)
                                   compound  property.label  measured.value
1  Cc1ccc(C(=O)N2CSCC2C(=O)N=c2[nH]cc(C)s2)o1 (stereo not drawn) [Compound T6938051]            CC50             110
2  O=C(CSc1nc2ccccc2[nH]1)Nc1ccc(Cl)cn1 [IC021313.2]            CC50            15.7

Next compound, please.
## Input Look up CC50 of O=C(CSc1nnc2c(n1)[nH]c1ccccc12)Nc1ccc(Cl)cn1 [IC020772.1] and report it.
## Output 7.53
